Experiment: Antiproliferative activity against human PC3 cells after 96 hrs by MTT assay
Type: functional, cell-based
Settings: PC-3, 96 h
Readout: IC50

Below, each entry is followed by its recorded IC50 result.
# Smiles input, Readout, Data value
measured = [
    ("FC(F)(F)Oc1cccc(Nc2nnnc3ccc(N4CCOCC4)nc23)c1", "IC50", "41 µM"),
    ("CCN1CCN(c2ccc3nnnc(Nc4cccc(OC(F)(F)F)c4)c3n2)CC1", "IC50", "16.9 µM"),
    ("OCCNc1ccc2nnnc(Nc3cccc(OC(F)(F)F)c3)c2n1", "IC50", "> 100 µM"),
    ("FC(F)(F)Oc1cccc(Nc2nnnc3ccc(N4CCNCC4)nc23)c1", "IC50", "11.5 µM"),
    ("CN1CCC(CNc2ccc3nnnc(Nc4cccc(OC(F)(F)F)c4)c3n2)CC1", "IC50", "15.8 µM"),
]

Enquiry: Please list IC50 recorded for the compound FC(F)(F)Oc1cccc(Nc2nnnc3ccc(N4CCC(N5CCCC5)CC4)nc23)c1
Return: 8.16 µM

Enquiry: # return recorded IC50 for entry CN1CCN(c2ccc3nnnc(Nc4cccc(OC(F)(F)F)c4)c3n2)CC1
Return: 24 µM

Enquiry: // fetch IC50 given entry FC(F)(F)Oc1cccc(Nc2nnnc3ccc(N4CCCC4)nc23)c1
Return: > 100 µM

Enquiry: Please report IC50 for the following compound: CN1CCC(CNc2ccc3ncc(-c4cccc(OC(F)(F)F)c4)n3n2)CC1
Return: 4.86 µM

Enquiry: For the compound FC(F)(F)Oc1cccc(Nc2nnnc3ccc(NCC4CCNCC4)nc23)c1 , report IC50.
Return: 8.32 µM

Enquiry: Give IC50 for FC(F)(F)Oc1cccc(Nc2nnnc3ccc(Cl)nc23)c1
Return: 5.99 µM

Enquiry: Read the entry CCOc1ccc2nnnc(Nc3cccc(OC(F)(F)F)c3)c2n1 and write its reported IC50.
Return: > 100 µM

Enquiry: Note down IC50 recorded for CC(C)N1CCN(c2ccc3nnnc(Nc4cccc(OC(F)(F)F)c4)c3n2)CC1
Return: 13.8 µM

Enquiry: Report IC50 for FC(F)(F)Oc1cccc(Nc2nnnc3ccc(N4CCC(N5CCCCC5)CC4)nc23)c1
Return: 5.58 µM

Enquiry: State its IC50 for this compound: CC(C)(C)OC(=O)N1CCC(CNc2ccc3nnnc(Nc4cccc(OC(F)(F)F)c4)c3n2)CC1
Return: > 100 µM

----------
Molecular target: Serine/threonine-protein kinase pim-1 (Homo sapiens, UniProt P11309)
Sequence (P11309 whole entry): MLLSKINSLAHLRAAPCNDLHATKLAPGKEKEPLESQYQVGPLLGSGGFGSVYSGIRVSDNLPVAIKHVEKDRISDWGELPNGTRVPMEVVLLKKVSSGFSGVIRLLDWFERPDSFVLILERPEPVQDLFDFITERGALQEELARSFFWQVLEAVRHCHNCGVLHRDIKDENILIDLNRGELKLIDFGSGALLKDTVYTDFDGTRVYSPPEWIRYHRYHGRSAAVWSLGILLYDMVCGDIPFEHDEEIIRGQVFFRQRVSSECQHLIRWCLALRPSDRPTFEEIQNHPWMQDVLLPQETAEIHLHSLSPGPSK
Known IC50 of a selection of compounds

Consider the worked cases shown below.
# Smiles input, Tested target, IC50
data = [
    ("FC(F)(F)Oc1cccc(Nc2nnnc3ccc(N4CCCC4)nc23)c1", "Serine/threonine-protein kinase pim-1 (Homo sapiens, UniProt P11309)", "> 10 µM"),
    ("CCCCOc1ccc2nnnc(Nc3cccc(OC(F)(F)F)c3)c2n1", "Serine/threonine-protein kinase pim-1 (Homo sapiens, UniProt P11309)", "> 10 µM"),
]

Now, please, on to the next compound.
Enquiry: Specify IC50 for CC(C)(C)OC(=O)N1CCC(CNc2ccc3nnnc(Nc4cccc(OC(F)(F)F)c4)c3n2)CC1 , system Serine/threonine-protein kinase pim-1 (Homo sapiens, UniProt P11309).
Return: > 10 µM

Cited source: ChEMBL document CHEMBL3763084
